Each entry below carries its reported CellTox Green cytotoxicity fluorescence.
- Test system: Kasumi-1
- assay-info: CellTox Green cytotoxicity fluorescence relative to DMSO vehicle (fold of vehicle RFU); higher = more cell death (loss of membrane integrity), active = 2 or more
- test-context: 0.1 µM; 48 h
Structures can show the parent of a compound that is named as a salt.
observable: CellTox Green cytotoxicity fluorescence

• CN[C@@H](C)C(=O)N[C@H](C(=O)N1CCC[C@H]1c1nc(C(=O)c2ccc(F)cc2)cs1)C1CCCCC1 = 1.02
• FC(F)(F)c1ccc(CNc2ccc(Cc3c[nH]c4ncc(Cl)cc34)cn2)cn1 [Pexidartinib] = 1
• COc1c/c(=C2\C=c3ccccc3=N2)[nH]/c1=C\c1[nH]c(C)cc1C [Obatoclax Mesylate] = 1.01
• COc1nc(-c2ccc3c(c2)OCO3)n(-c2ccc(NC(=O)CSc3ccccc3)cc2)n1 [SecinH3] = 1.02
• C[C@H]1Oc2cc(cnc2N)-c2c(nn(C)c2C#N)CN(C)C(=O)c2ccc(F)cc21 = 0.988

* * *

- System: Kasumi-1
- assay-info: CellTox Green cytotoxicity fluorescence relative to DMSO vehicle (fold of vehicle RFU); higher = more cell death (loss of membrane integrity), active = 2 or more
- test-context: 0.01 µM; 24 h
Measured CellTox Green cytotoxicity fluorescence of individual entries
observable: CellTox Green cytotoxicity fluorescence

* CCCCCCCCCCCC1=C(O)C(=O)C=C(O)C1=O | 0.991
* O=C(NS(=O)(=O)c1ccc(Br)s1)c1ccc(Cl)cc1Cl | 1.02
* O=C1NC(=NCc2cccs2)S/C1=C\c1ccc2ncccc2c1 | 0.99
* CC[C@H](NC(=O)[C@H](C)NC)C(=O)N1C[C@@H](O)C[C@H]1Cc1c(-c2[nH]c3cc(F)ccc3c2C[C@@H]2C[C@H](O)CN2C(=O)[C@H](CC)NC(=O)[C@H](C)NC)[nH]c2cc(F)ccc12 | 0.993
* N#CC(=Cc1ccc(-c2cc(Cl)ccc2Cl)o1)C(=O)Nc1cccc2ncccc12 | 1
* O=C1C(=O)N(Cc2ccc(Cl)c(Cl)c2)c2ccccc21 | 0.997
* CC(C)[C@H](CO)Nc1nc(Nc2cccc(Cl)c2)c2ncn(C(C)C)c2n1 | 0.997
* C=CCc1cccc(/C=N/NC(=O)CN2CCN(Cc3ccccc3)CC2)c1O | 1
* CCN(CC)CCNC(=O)c1c(C)[nH]c(/C=C2\C(=O)Nc3ccc(F)cc32)c1C | 0.988
* COCC[n+]1c2c(n(Cc3cnccn3)c1C)C(=O)c1ccccc1C2=O [Sepantronium Bromide] | 1.02
* Nc1cccc2c1CN(C1CCC(=O)NC1=O)C2=O (stereo not drawn) [Lenalidomide] | 0.986
* COc1cc(C(=O)O)ccc1NC(=O)[C@@H]1N[C@@H](CC(C)(C)C)[C@](C#N)(c2ccc(Cl)cc2F)[C@H]1c1cccc(Cl)c1F | 1.01
* C=CC(=O)N1CCC(Oc2cc3c(Nc4ccc(Cl)c(Cl)c4F)ncnc3cc2OC)CC1 | 0.992

* * *

- Test system: MV4-11
- assay-info: CellTox Green cytotoxicity fluorescence relative to DMSO vehicle (fold of vehicle RFU); higher = more cell death (loss of membrane integrity), active = 2 or more
- test-context: 0.01 µM; 24 h
Entries and their CellTox Green cytotoxicity fluorescence values follow.
observable: CellTox Green cytotoxicity fluorescence

• Fc1ccc(CNc2ncnc3ccc(F)cc23)cc1 [Spautin-1] = 0.982
• CN1CCN(CCCNc2ncc(Cl)c(-c3cc4c(C(=O)NC5CC5)cccc4s3)n2)CC1 = 0.979
• COc1ccc(C2=N[C@@H](c3ccc(Cl)cc3)[C@@H](c3ccc(Cl)cc3)N2C(=O)N2CCNC(=O)C2)c(OC(C)C)c1 [Nutlin-3] = 0.981
• CCOC(=O)c1[nH]c2cc(Cl)ccc2c1C(C(=O)NC(C)(C)C)N(C=O)Cc1ccc(Cl)cc1 (stereo unspecified) = 0.983
• O=C(O)CSc1cc(NS(=O)(=O)c2ccc(Br)cc2)c2ccccc2c1O = 0.99
• Cc1nc(Nc2ncc(C(=O)Nc3c(C)cccc3Cl)s2)cc(N2CCN(CCO)CC2)n1 [Dasatinib Monohydrate] = 1
• C[C@H]1Oc2cc(cnc2N)-c2c(nn(C)c2C#N)CN(C)C(=O)c2ccc(F)cc21 = 0.984
• C/C(=N\NC(=O)c1cccc(S(=O)(=O)N2CCOCC2)c1)c1cc(Cl)ccc1O = 0.971
• CC[C@H](NC(=O)[C@H](C)NC)C(=O)N1C[C@@H](O)C[C@H]1Cc1c(-c2[nH]c3cc(F)ccc3c2C[C@@H]2C[C@H](O)CN2C(=O)[C@H](CC)NC(=O)[C@H](C)NC)[nH]c2cc(F)ccc12 [Birinapant] = 0.987
• CN[C@@H](C)C(=O)N[C@H](C(=O)N1CCC[C@H]1C(=O)Nc1snnc1-c1ccccc1)C1CCCCC1 = 1.01
• COc1cc(C(=O)N2CCC(N3CCN(C)CC3)CC2)ccc1Nc1ncc2c(n1)N(C)c1ccccc1C(=O)N2C = 1.02
• C=CCc1cccc(/C=N/NC(=O)CN2CCN(Cc3ccccc3)CC2)c1O = 0.974
• COc1nc(-c2ccc3c(c2)OCO3)n(-c2ccc(NC(=O)CSc3ccccc3)cc2)n1 [SecinH3] = 1.02
• CCCC[C@@H](C=O)NC(=O)[C@H](CC(C)C)NC(=O)OCc1ccccc1 [Calpeptin] = 0.979
• COC(=O)[C@H](CCSC)NC(=O)c1ccc(NC[C@@H](N)CS)cc1-c1ccccc1 = 0.942
• Cc1cccc(CC(=O)N2CCc3c2ccc(-c2cn(C)c4ncnc(N)c24)c3F)n1 = 1.04
• O=C1NC(=NCc2cccs2)S/C1=C\c1ccc2ncccc2c1 = 0.976
• CNC(=O)c1ccc(Nc2ncc(C(F)(F)F)c(NCc3nccnc3N(C)S(C)(=O)=O)n2)cc1 [Defactinib] = 0.944
• c1ccc2c(CCNc3ccc(Nc4ccncc4)cc3)c[nH]c2c1 [Serdemetan] = 0.97
• NS(=O)(=O)C#Cc1ccccc1 [Pifithrin-m] = 0.989
• CC(=NNC(=S)N1CCC1)c1ccccn1 = 0.984
